Tested on: NCI-H522
Experiment: NCI tumour cell line growth inhibition, 48 h
Activity calls are given as the source filed them. Cut-off read from the data, not from the text of the source: active = GI50 up to about 1.1 µM and inactive = higher.
Listing: GI50 of selected molecules

Here's what some known entries look like.
> print(dat)
                                   molecule  tested.system  measurement.type           obs.value
1       COc1cccc(CCN2CCN(CCCc3ccccc3)CC2)c1       NCI-H522              GI50  22.6 µM (inactive)
2  COc1ccc(C(c2cc3c(cc2O)OCO3)N2CCOCC2)cc1OC (stereo unspecified)       NCI-H522              GI50  3.28 µM (inactive)
3  COS(=O)c1cc(Cl)cc(Cl)c1OC(=O)CSSCC(=O)Oc1c(Cl)cc(Cl)cc1S(=O)OC (stereo unspecified)       NCI-H522              GI50  14.2 µM (inactive)

Query string: Provide the documented GI50 with NCI-H522 as the system for CCOC1=C(c2ccccc2)N2CCCCC2O1 (stereo unspecified)
Result string: 3.38 µM (inactive)

Query string: What GI50 appears in the records for this molecule with NCI-H522? "Cn1c(=O)c2sc3c4sc5c(=O)n(C)c6ccccc6c5c4sc3c2c2ccccc21"
Result string: > 100 µM (inactive)

Query string: API: value(readout=GI50, system=NCI-H522) for record "CN(N)/N=N/c1[nH]cnc1[N+](=O)[O-]"
Result string: > 100 µM (inactive)

====

System: 786-0
Assay: NCI tumour cell line growth inhibition, 48 h
Activity calls are given as the source filed them. Cut-off read from the data, not from the text of the source: active = GI50 up to about 1.1 µM and inactive = higher.
measurement.type: GI50

molecule	measurement.type	obs.value
COc1ccc2c(c1)CC[C@@H]1[C@@H]2CC[C@]2(C)C(=O)/C(=C/c3ccncc3)C[C@@H]12	GI50	32.3 µM (inactive)
CCOP(=O)(OCC)C(Nc1ccc(F)cc1)c1ccccc1 (stereo not given)	GI50	> 100 µM (inactive)
NC(c1ccccc1)(C(F)(F)F)P1(=O)OC(=O)c2ccccc2O1 (stereo not given)	GI50	> 100 µM (inactive)
O=C(O)c1cc2ccccc2c(Cc2c(O)c(C(=O)O)cc3ccccc23)c1O	GI50	> 100 µM (inactive)
CCOC(=O)Nc1ccc(S(=O)(=O)I)cc1.CCOC(=O)Nc1ccc(S(=O)(=O)I)cc1.CNC(=O)N=O.NC(=O)OCCCl	GI50	> 100 µM (inactive)

Query string: Quick check: GI50 of CC(=O)O[C@H]1CCC2[C@@H]3CCC4C(=O)c5oncc5C[C@]4(C)C3CC[C@@]21C (stereo not given in full) ?
Result string: > 100 µM (inactive)

Query string: Given O=C(c1ccc(Cl)cc1)N1N=C(c2ccc(Cl)cc2)CC1(O)c1cc(F)c(Cl)cc1Cl (stereo not given) , state its recorded GI50.
Result string: 18.9 µM (inactive)

Query string: What value of measured GI50 is listed for "N/C(=N\O)N/N=C\c1c2ccccc2c(Cl)c2ccccc12" ?
Result string: 12.6 µM (inactive)

Query string: If you can, please state the reported GI50 value of "CC1(C)CC(=O)C2=C(C1)NC1=C(C(=O)CC(C)(C)C1)C2c1ccc([N+](=O)[O-])cc1" .
Result string: > 100 µM (inactive)

====

System: PC-3
Assay: NCI tumour cell line growth inhibition, 48 h
Calls of active or inactive are those of the source. Cut-off read from the data, not from the text of the source: active = GI50 up to about 1.1 µM and inactive = higher.
# Lookup of reported GI50 keyed by entry

> print(dat)
                                   molecule  tested.system  measurement.type           obs.value
1         O=C(NCCCCCCO)c1cccc2cc3ccccc3nc12           PC-3              GI50    17 µM (inactive)
2  CCCCN(CCCC)CC(O)c1cc(-c2ccc(Cl)c(Cl)c2)nc2c(Cl)cc(Cl)cc12 (stereo not given)           PC-3              GI50  36.4 µM (inactive)
3   COc1ccc(NC(=O)/C(O)=C/C(=O)c2ccccc2)cc1           PC-3              GI50  > 10 µM (inactive)

Query string: Data request, read-out GI50, for NC(c1ccccc1)(C(F)(F)F)P1(=O)OC(=O)c2ccccc2O1 (stereo not given)
Result string: > 100 µM (inactive)

Query string: # input molecule: COc1cc(/N=N/N(C)C)c(C(C)c2c3cc(OC)c(OC)cc3cc[n+]2C)cc1OC (stereo not given) ; wanted: its GI50
Result string: 38.5 µM (inactive)
